system_tested: T1, C5 peptide 52-124 fused to GST-tag (human, UniProt P01031 52-124)
T1 construct: not shown: GST-tag (glutathione S-transferase); vector and linker not restated
protocol_details: summary drawing of the binding reactions to C5 beta-chain fragments
assay_readout: binding result

CFA0501 (antibody, V domains shown, Chimeric, rabbit V regions; also called CFA0501-F760G4) VH: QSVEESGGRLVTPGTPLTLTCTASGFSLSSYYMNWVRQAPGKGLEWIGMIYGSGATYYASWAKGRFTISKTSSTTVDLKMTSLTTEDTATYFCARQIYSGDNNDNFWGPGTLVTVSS VL: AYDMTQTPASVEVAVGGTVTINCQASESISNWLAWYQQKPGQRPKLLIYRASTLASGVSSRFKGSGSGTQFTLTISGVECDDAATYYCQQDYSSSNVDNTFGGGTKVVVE : no binding
CFA0675 (antibody, V domains shown, Chimeric, rabbit V regions; also called CFA0675-F760G4) VH: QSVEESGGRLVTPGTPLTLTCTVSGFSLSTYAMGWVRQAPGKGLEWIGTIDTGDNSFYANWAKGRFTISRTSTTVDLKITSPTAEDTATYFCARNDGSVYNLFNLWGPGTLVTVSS VL: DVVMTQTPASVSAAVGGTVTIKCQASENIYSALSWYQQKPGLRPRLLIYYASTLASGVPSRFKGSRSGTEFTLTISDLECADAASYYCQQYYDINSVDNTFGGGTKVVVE : no binding
